Biological target: TIM-3 (antigen; species and construct not stated for the assay) (UniProt Q8TDQ0 22-202, limits assumed)
Assay: FACS competition binding against the parent murine ABTIM3; cells not named on the sheet
Overview of recorded IC50 (read off the curve) for various binders

binder	IC50 (read off the curve)
ABTIM3-hum07 (antibody, human IgG4 S228P, kappa, V domains shown, Humanized) VH: QVQLVQSGAEVKKPGASVKVSCKASGYTFTSYNMHWIRQAPGQGLEWIGDIYPGNGDTSYNQKFKGRATLTADKSTSTVYMELSSLRSEDTAVYYCARVGGAFPMDYWGQGTLVTVSS VL: DIVLTQSPDSLAVSLGERATINCRASESVEYYGTSLMQWYQQKPGQPPKLLIYAASNVESGVPDRFSGSGSGTDFTLTISSLQAEDVAVYYCQQSRKDPSTFGGGTKVEIKR	~0.2 mg/L

Switching to the query record.
**Q:** Identify the reported IC50 (read off the curve) for the following entry. ABTIM3-hum08 (antibody, human IgG4 S228P, kappa, V domains shown, Humanized) VH: QVQLVQSGAEVKKPGASVKVSCKASGYTFTSYNMHWVRQAPGQGLEWIGDIYPGNGDTSYNQKFKGRATMTADKSTSTVYMELSSLRSEDTAVYYCARVGGAFPMDYWGQGTLVTVSS VL: DIVLTQSPDSLAVSLGERATINCRASESVEYYGTSLMQWYQQKPGQPPKLLIYAASNVESGVPDRFSGSGSGTDFTLTISSLQAEDVAVYFCQQSRKDPSTFGGGTKVEIKR
**A:** ~0.2 mg/L
